target: human V1a receptor (Homo sapiens (Human)); test: Cellular in vitro assay for determining the vasopressin receptor activity (aequorin luminescence, CHO cells, antagonism of [Arg8]-vasopressin); details: cell line transfected with the human V1a receptor; agonist [Arg8]-vasopressin; read-out: IC50 hV1a
pIC50: −log10 of the molar value.
Items are presented alongside their recorded pIC50.
measurement_label: pIC50

{"columns": ["compound", "measurement_target", "measured_number"],
 "data": [
  ["NC(=O)OC(CNC(=O)Cn1nc(-c2ccc(Cl)cc2)n(Cc2ccccc2F)c1=O)c1ccccc1Cl (racemic)", "human V1a receptor (Homo sapiens (Human))", 8.00],
  ["CCNC(=O)OCC(CNC(=O)Cn1nc(-c2ccc(Cl)cc2)n(C[C@H](O)C(F)(F)F)c1=O)c1cccc(C(F)(F)F)c1 (stereo partly drawn)", "human V1a receptor (Homo sapiens (Human))", 7.62],
  ["CC(C)(C)OC(=O)NC(CNC(=O)Cn1nc(-c2ccc(Cl)cc2)n(C[C@H](O)C(F)(F)F)c1=O)c1ccccc1C(F)(F)F (stereo partly drawn)", "human V1a receptor (Homo sapiens (Human))", 8.40],
  ["CS(=O)(=O)NC(CNC(=O)Cn1nc(-c2ccc(Cl)cc2)n(C[C@H](O)C(F)(F)F)c1=O)c1ccccc1Cl (stereo partly drawn)", "human V1a receptor (Homo sapiens (Human))", 8.10],
  ["NC(=O)OCC(CNC(=O)Cn1nc(-c2ccc(Cl)cc2)n(C[C@H](O)C(F)(F)F)c1=O)c1cccc(C(F)(F)F)c1 (single isomer, unassigned)", "human V1a receptor (Homo sapiens (Human))", 7.20],
  ["NC(=O)OC(CNC(=O)Cn1nc(-c2ccc(Cl)cc2)n(C[C@H](O)C(F)(F)F)c1=O)c1ccccc1C(F)(F)F (single isomer, unassigned)", "human V1a receptor (Homo sapiens (Human))", 8.10]
]}

---

biological target: human V2 receptor (Homo sapiens (Human), UniProt P30518); assay: Cellular in vitro assay for determining the vasopressin receptor activity (aequorin luminescence, CHO cells, antagonism of [Arg8]-vasopressin); conditions: cell line transfected with the human V2 receptor; agonist [Arg8]-vasopressin; read-out: IC50 hV2
Sequence (P30518 whole entry): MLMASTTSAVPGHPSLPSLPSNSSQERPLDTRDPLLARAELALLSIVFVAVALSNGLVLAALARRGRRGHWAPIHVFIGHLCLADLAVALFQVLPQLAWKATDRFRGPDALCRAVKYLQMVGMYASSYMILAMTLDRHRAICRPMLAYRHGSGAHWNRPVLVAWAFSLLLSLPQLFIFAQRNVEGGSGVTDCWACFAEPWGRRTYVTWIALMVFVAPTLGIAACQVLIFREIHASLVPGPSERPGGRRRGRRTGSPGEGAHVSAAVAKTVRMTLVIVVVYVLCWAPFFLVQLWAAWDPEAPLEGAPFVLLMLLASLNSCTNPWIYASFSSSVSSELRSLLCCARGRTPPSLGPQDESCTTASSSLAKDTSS
Items are presented alongside their recorded IC50.
measurement_label: IC50 (nM)

{"columns": ["compound", "measurement_target", "measurement_label", "unit_of_measurement", "measured_number"],
 "data": [
  ["NC(=O)OC(CNC(=O)Cn1nc(-c2ccc(Cl)cc2)n(CCC(F)(F)F)c1=O)c1ccccc1Cl (racemic)", "human V2 receptor (Homo sapiens (Human), UniProt P30518)", "IC50", "nM", 48],
  ["CC(C)(C)OC(=O)NC(CNC(=O)Cn1nc(-c2ccc(Cl)cc2)n(C[C@H](O)C(F)(F)F)c1=O)c1cccc(Cl)c1Cl (single isomer, unassigned)", "human V2 receptor (Homo sapiens (Human), UniProt P30518)", "IC50", "nM", 11],
  ["COCCn1c(-c2ccc(Cl)s2)nn(CC(=O)NCC(NC(=O)OC(C)(C)C)c2ccccc2C(F)(F)F)c1=O (racemic)", "human V2 receptor (Homo sapiens (Human), UniProt P30518)", "IC50", "nM", 1200],
  ["NC(=O)NC(CNC(=O)Cn1nc(-c2ccc(Cl)cc2)n(C[C@H](O)C(F)(F)F)c1=O)c1ccccc1Cl (single isomer, unassigned)", "human V2 receptor (Homo sapiens (Human), UniProt P30518)", "IC50", "nM", 8],
  ["CCNC(=O)OCC(CNC(=O)Cn1nc(-c2ccc(Cl)cc2)n(C[C@H](O)C(F)(F)F)c1=O)c1cccc(C(F)(F)F)c1 (stereo partly drawn)", "human V2 receptor (Homo sapiens (Human), UniProt P30518)", "IC50", "nM", 9],
  ["NC(=O)OCC(CNC(=O)Cn1nc(-c2ccc(Cl)cc2)n(C[C@H](O)C(F)(F)F)c1=O)c1ccccc1C(F)(F)F (single isomer, unassigned)", "human V2 receptor (Homo sapiens (Human), UniProt P30518)", "IC50", "nM", 16]
]}

---

target: human V1a receptor (Homo sapiens (Human), UniProt P37288); assay: Cellular in vitro assay for determining the vasopressin receptor activity (aequorin luminescence, CHO cells, antagonism of [Arg8]-vasopressin); details: cell line transfected with the human V1a receptor; agonist [Arg8]-vasopressin; read-out: IC50 hV1a
Sequence (P37288 whole entry): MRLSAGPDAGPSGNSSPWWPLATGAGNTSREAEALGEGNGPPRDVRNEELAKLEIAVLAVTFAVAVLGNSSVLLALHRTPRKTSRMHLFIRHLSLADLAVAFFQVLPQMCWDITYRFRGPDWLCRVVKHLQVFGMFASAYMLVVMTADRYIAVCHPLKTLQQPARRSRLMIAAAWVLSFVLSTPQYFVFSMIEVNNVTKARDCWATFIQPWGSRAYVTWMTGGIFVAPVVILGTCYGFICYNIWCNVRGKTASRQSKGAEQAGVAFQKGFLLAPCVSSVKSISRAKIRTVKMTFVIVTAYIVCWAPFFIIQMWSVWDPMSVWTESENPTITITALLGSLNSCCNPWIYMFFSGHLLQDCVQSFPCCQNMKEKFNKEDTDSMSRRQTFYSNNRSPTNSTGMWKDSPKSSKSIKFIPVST
pIC50: −log10 of the molar value.
measurement_label: pIC50

{"columns": ["molecule", "measurement_label", "measured_number"],
 "data": [
  ["CC(=O)NC(C)(CNC(=O)Cn1nc(-c2ccc(Cl)cc2)n(C[C@H](O)C(F)(F)F)c1=O)c1cccc(C(F)(F)F)c1 (single isomer, unassigned)", "pIC50", 7.60],
  ["COCCn1c(-c2ccc(Cl)s2)nn(CC(=O)NCC(NS(C)(=O)=O)c2ccccc2C(F)(F)F)c1=O (racemic)", "pIC50", 6.89],
  ["NC(=O)OCC(CNC(=O)Cn1nc(-c2ccc(Cl)cc2)n(C[C@H](O)C(F)(F)F)c1=O)c1ccccc1C(F)(F)F (single isomer, unassigned)", "pIC50", 9.00]
]}

---

molecular target: human V2 receptor (Homo sapiens (Human)); assay: Cellular in vitro assay for determining the vasopressin receptor activity (aequorin luminescence, CHO cells, antagonism of [Arg8]-vasopressin); conditions: cell line transfected with the human V2 receptor; agonist [Arg8]-vasopressin; read-out: IC50 hV2
pIC50: −log10 of the molar value.

{"columns": ["compound", "measurement_target", "pIC50"],
 "data": [
  ["COCCn1c(-c2ccc(Cl)s2)nn(CC(=O)NCC(NS(C)(=O)=O)c2ccccc2C(F)(F)F)c1=O (racemic)", "human V2 receptor (Homo sapiens (Human))", 5.46],
  ["NC(=O)OC(CNC(=O)Cn1nc(-c2ccc(Cl)cc2)n(C[C@H](O)C(F)(F)F)c1=O)c1ccccc1Cl (stereo partly drawn)", "human V2 receptor (Homo sapiens (Human))", 8.70],
  ["CC(=O)NC(C)(CNC(=O)Cn1nc(-c2ccc(Cl)cc2)n(C[C@H](O)C(F)(F)F)c1=O)c1cccc(C(F)(F)F)c1 (single isomer, unassigned)", "human V2 receptor (Homo sapiens (Human))", 8.00],
  ["CC(C)(C)OC(=O)NC(CNC(=O)Cn1nc(-c2ccc(Cl)cc2)n(C[C@H](O)C(F)(F)F)c1=O)c1ccccc1C(F)(F)F (stereo partly drawn)", "human V2 receptor (Homo sapiens (Human))", 7.15],
  ["NC(=O)OC(CNC(=O)Cn1nc(-c2ccc(Cl)cc2)n(C[C@H](O)C(F)(F)F)c1=O)c1cccc(Cl)c1Cl (single isomer, unassigned)", "human V2 receptor (Homo sapiens (Human))", 8.70],
  ["CC(C)(C)OC(=O)NC(CNC(=O)Cn1nc(-c2ccc(Cl)s2)n(Cc2ccccc2F)c1=O)c1ccccc1C(F)(F)F (racemic)", "human V2 receptor (Homo sapiens (Human))", 6.52],
  ["NC(=O)OC(CNC(=O)Cn1nc(-c2ccc(Cl)cc2)n(C[C@H](O)C(F)(F)F)c1=O)c1ccccc1C(F)(F)F (single isomer, unassigned)", "human V2 receptor (Homo sapiens (Human))", 8.52],
  ["O=CNC(CNC(=O)Cn1nc(-c2ccc(Cl)cc2)n(C[C@H](O)C(F)(F)F)c1=O)c1cccc(C(F)(F)F)c1 (stereo partly drawn)", "human V2 receptor (Homo sapiens (Human))", 7.89],
  ["CS(=O)(=O)NC(CNC(=O)Cn1nc(-c2ccc(Cl)cc2)n(C[C@H](O)C(F)(F)F)c1=O)c1ccccc1Cl (stereo partly drawn)", "human V2 receptor (Homo sapiens (Human))", 8.30],
  ["O=C(Cn1nc(-c2ccc(Cl)cc2)n(C[C@H](O)C(F)(F)F)c1=O)N[C@@H](CO)Cc1cccc(C(F)(F)F)c1", "human V2 receptor (Homo sapiens (Human))", 7.82],
  ["NC(=O)OCC(CNC(=O)Cn1nc(-c2ccc(Cl)cc2)n(C[C@H](O)C(F)(F)F)c1=O)c1cccc(C(F)(F)F)c1 (single isomer, unassigned)", "human V2 receptor (Homo sapiens (Human))", 8.30],
  ["NC(=O)OC(CNC(=O)Cn1nc(-c2ccc(Cl)cc2)n(Cc2ccccc2F)c1=O)c1ccccc1Cl (racemic)", "human V2 receptor (Homo sapiens (Human))", 7.66]
]}
